Listing of recorded pIC50 by entry.
experimental.system: BRD4-NanoLuc (Homo sapiens, UniProt O60885)
Construct: expressed in transfected cells; host or cells: HEK293
measurement.description: NanoBRET target engagement assay, live and permeabilized HEK293 cells (BRD4)
Format: cell-based
measurement.context: permeabilized HEK293 cells, BRD4 NanoBRET TE; read-out: Permeabilized-Cell TE; IC50
Protocol: We employed a NanoBRET-based target engagement (TE) assay as reported earlier^7 for evaluating PROTACs relative permeability. […] The relative shift in the IC50 was evaluated as relative binding affinity (RBA) by taking the ratio of IC50 values of live and permeabilized cells. Availability index (AI), which is a surrogate for permeability can be calculated by taking a ratio of RBA of compounds to permeable benchmark molecules. […]
# pIC50 = -log10(concentration in molar units)

The examples below pair each entry with its known result.
>>> numeric_value("Cc1ncsc1-c1ccc(CNC(=O)[C@@H]2C[C@@H](O)CN2C(=O)[C@@H](NC(=O)COCCOCc2cn(CCNC(=O)C[C@@H]3N=C(c4ccc(Cl)cc4)c4c(sc(C)c4C)-n4c(C)nnc43)nn2)C(C)(C)C)cc1 [Compound 13]")
7.00
>>> numeric_value("Cc1ncsc1-c1ccc(CNC(=O)[C@@H]2C[C@@H](O)CN2C(=O)[C@@H](NC(=O)COCc2cn(CCNC(=O)C[C@@H]3N=C(c4ccc(Cl)cc4)c4c(sc(C)c4C)-n4c(C)nnc43)nn2)C(C)(C)C)cc1 [Compound 12]")
7.10
>>> numeric_value("Cc1ncsc1-c1ccc(CNC(=O)[C@@H]2C[C@@H](O)CN2C(=O)[C@@H](NC(=O)COCCOCCOCCOCCOCc2cn(CCNC(=O)C[C@@H]3N=C(c4ccc(Cl)cc4)c4c(sc(C)c4C)-n4c(C)nnc43)nn2)C(C)(C)C)cc1 [Compound 16]")
6.96
>>> numeric_value("Cc1ncsc1-c1ccc(CNC(=O)[C@@H]2C[C@@H](O)CN2C(=O)[C@@H](NC(=O)COCCOCCOCCOCc2cn(CCNC(=O)C[C@@H]3N=C(c4ccc(Cl)cc4)c4c(sc(C)c4C)-n4c(C)nnc43)nn2)C(C)(C)C)cc1 [Compound 15]")
6.96

// lookup pIC50 for Cc1ncsc1-c1ccc(CNC(=O)[C@@H]2C[C@@H](O)CN2C(=O)[C@@H](NC(=O)COCCOCCOCc2cn(CCNC(=O)C[C@@H]3N=C(c4ccc(Cl)cc4)c4c(sc(C)c4C)-n4c(C)nnc43)nn2)C(C)(C)C)cc1 [Compound 14]
7.00

====

experimental.system: BRD4 (Homo sapiens, UniProt O60885)
Construct: endogenous in cells; host or cells: A375
measurement.description: BRD4 degradation, MSD assay, dose response
Format: cell-based
measurement.context: BRD4 degradation, MSD assay, A375 cells, 4 h timepoint
DC50 values, listed per item
Answer format: numeric, µM implied, no suffix.

Before answering, review these 2 worked examples.
>>> numeric_value("Cc1ncsc1-c1ccc(CNC(=O)[C@@H]2C[C@@H](O)CN2C(=O)[C@@H](NC(=O)COCCOCCOCc2cn(CCNC(=O)C[C@@H]3N=C(c4ccc(Cl)cc4)c4c(sc(C)c4C)-n4c(C)nnc43)nn2)C(C)(C)C)cc1 [Compound 14]")
2.26
>>> numeric_value("Cc1ncsc1-c1ccc(CNC(=O)[C@@H]2C[C@@H](O)CN2C(=O)[C@@H](NC(=O)COCc2cn(CCNC(=O)C[C@@H]3N=C(c4ccc(Cl)cc4)c4c(sc(C)c4C)-n4c(C)nnc43)nn2)C(C)(C)C)cc1 [Compound 12]")
0.518

Consider the compound shown here: Cc1ncsc1-c1ccc(CNC(=O)[C@@H]2C[C@@H](O)CN2C(=O)[C@@H](NC(=O)COCCOCc2cn(CCNC(=O)C[C@@H]3N=C(c4ccc(Cl)cc4)c4c(sc(C)c4C)-n4c(C)nnc43)nn2)C(C)(C)C)cc1 [Compound 13] What is its recorded DC50?
0.726

====

experimental.system: VBC / BRD4^BD1 ternary complex (Homo sapiens, UniProt O60885+P40337)
Construct: VHL (54-213), ElonginB (17-112) ElonginC (1-104); BRD4 (44-168); His6 (N, cleaved yes); made in house
measurement.description: SPR ternary complex binding, VBC surface with preformed PROTAC/BRD4 BD1 complex
Experimental: SPR experiments were performed on a Biacore 8 K or T200 instrument (Cytiva). […] The running buffer during immobilization was PBS with 0.005% P20. Either high-density (3000-4000 RU) or low-density (300-400 RU) VBC-functionalized surfaces were created, followed by equilibration in the running buffer for 3 h. PROTACs (10 mM in 100% DMSO) were initially prepared at 200 nM in a running buffer (20 mM Tris pH 8.0, 250 mM NaCl, 1 mM TCEP, 0.01% P20, 0.2 mg/ml BSA) with a concentration of 2% DMSO. […]
property.label: α (cooperativity, KLP/KLPT)
Respond with the number and no other words.

These recorded examples may help you get a feel for the data.
>>> numeric_value("Cc1ncsc1-c1ccc(CNC(=O)[C@@H]2C[C@@H](O)CN2C(=O)[C@@H](NC(=O)COCCOCCOCCOCCOCc2cn(CCNC(=O)C[C@@H]3N=C(c4ccc(Cl)cc4)c4c(sc(C)c4C)-n4c(C)nnc43)nn2)C(C)(C)C)cc1 [Compound 16]")
1
>>> numeric_value("Cc1ncsc1-c1ccc(CNC(=O)[C@@H]2C[C@@H](O)CN2C(=O)[C@@H](NC(=O)COCc2cn(CCNC(=O)C[C@@H]3N=C(c4ccc(Cl)cc4)c4c(sc(C)c4C)-n4c(C)nnc43)nn2)C(C)(C)C)cc1 [Compound 12]")
0.7

With those in mind, consider the next molecule.
Identify the measured α (cooperativity, KLP/KLPT) of Cc1ncsc1-c1ccc(CNC(=O)[C@@H]2C[C@@H](O)CN2C(=O)[C@@H](NC(=O)COCCOCc2cn(CCNC(=O)C[C@@H]3N=C(c4ccc(Cl)cc4)c4c(sc(C)c4C)-n4c(C)nnc43)nn2)C(C)(C)C)cc1 [Compound 13] for VBC / BRD4^BD1 ternary complex (Homo sapiens, UniProt O60885+P40337).
0.6

====

experimental.system: SMARCA2 (Homo sapiens, UniProt P51531)
Construct: endogenous in cells; host or cells: A375
Sequence (P51531 whole entry): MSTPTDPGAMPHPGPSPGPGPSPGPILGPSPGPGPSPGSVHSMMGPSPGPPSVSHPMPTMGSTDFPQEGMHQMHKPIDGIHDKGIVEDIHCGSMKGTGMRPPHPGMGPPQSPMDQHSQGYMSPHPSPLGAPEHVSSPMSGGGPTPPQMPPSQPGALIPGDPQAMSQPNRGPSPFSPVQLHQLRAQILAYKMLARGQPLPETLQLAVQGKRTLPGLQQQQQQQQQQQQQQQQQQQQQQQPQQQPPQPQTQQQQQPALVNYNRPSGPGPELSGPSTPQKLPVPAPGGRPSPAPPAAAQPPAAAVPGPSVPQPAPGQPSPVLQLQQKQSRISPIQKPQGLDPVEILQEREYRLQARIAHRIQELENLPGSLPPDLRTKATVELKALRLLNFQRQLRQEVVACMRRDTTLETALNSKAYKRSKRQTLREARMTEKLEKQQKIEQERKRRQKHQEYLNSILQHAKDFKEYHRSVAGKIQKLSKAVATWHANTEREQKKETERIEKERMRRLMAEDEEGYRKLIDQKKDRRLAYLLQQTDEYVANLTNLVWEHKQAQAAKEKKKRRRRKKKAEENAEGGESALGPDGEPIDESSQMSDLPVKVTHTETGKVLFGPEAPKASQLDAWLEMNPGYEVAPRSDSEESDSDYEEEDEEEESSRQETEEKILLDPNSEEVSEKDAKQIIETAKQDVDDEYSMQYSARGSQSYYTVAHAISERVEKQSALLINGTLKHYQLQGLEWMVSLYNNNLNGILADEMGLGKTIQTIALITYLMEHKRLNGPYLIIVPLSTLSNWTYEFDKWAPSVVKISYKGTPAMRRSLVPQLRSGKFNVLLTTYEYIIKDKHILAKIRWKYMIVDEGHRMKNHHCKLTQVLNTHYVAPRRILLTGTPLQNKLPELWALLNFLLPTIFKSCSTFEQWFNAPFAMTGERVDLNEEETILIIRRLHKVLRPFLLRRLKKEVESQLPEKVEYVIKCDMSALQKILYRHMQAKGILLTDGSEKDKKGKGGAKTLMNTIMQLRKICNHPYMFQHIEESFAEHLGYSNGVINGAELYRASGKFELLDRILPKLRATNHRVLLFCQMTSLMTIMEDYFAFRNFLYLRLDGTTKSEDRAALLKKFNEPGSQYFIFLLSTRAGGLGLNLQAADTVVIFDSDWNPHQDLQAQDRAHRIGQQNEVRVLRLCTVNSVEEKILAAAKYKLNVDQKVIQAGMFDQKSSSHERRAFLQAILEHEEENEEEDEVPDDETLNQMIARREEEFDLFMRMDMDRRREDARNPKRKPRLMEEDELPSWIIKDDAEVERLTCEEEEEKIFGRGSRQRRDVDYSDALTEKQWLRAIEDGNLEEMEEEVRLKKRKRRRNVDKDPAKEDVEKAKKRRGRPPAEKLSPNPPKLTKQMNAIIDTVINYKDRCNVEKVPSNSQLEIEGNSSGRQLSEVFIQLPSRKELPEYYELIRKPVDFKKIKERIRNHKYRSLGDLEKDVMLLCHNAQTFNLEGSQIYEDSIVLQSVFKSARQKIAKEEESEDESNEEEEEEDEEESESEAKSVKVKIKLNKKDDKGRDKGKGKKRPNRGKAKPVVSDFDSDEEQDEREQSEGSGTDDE
measurement.description: SMARCA2 degradation time course in A375 cells (MSD)
Format: cell-based
measurement.context: single concentration at or near maximal activity
// assign Satisfied if Initial Degradation Rate falls strictly below 2 %/min, else Not satisfied (ties count as Not satisfied)

Recorded results for 3 compounds are shown here.
>>> group_label("Cc1ncsc1-c1ccc([C@H](C)NC(=O)[C@@H]2C[C@@H](O)CN2C(=O)[C@@H](NC(=O)c2cccc(N3CCN(c4cc(-c5ccccc5O)nnc4N)CC3)c2)C(C)(C)C)cc1")
"Not satisfied"
>>> group_label("Cc1ncsc1-c1ccc([C@H](C)NC(=O)[C@@H]2C[C@@H](O)CN2C(=O)[C@@H](NC(=O)CN2CCN(c3cc(-c4ccccc4O)nnc3N)CC2)C(C)(C)C)cc1 [Compound 6, reference compound]")
"Not satisfied"
>>> group_label("Cc1ncsc1-c1ccc([C@H](C)NC(=O)[C@@H]2C[C@@H](O)CN2C(=O)[C@@H](NC(=O)Cc2ccnc(N3CCN(c4cc(-c5ccccc5O)nnc4N)CC3)c2)C(C)(C)C)cc1")
"Satisfied"

Is Initial Degradation Rate of Cc1ncsc1-c1ccc([C@H](C)NC(=O)[C@@H]2C[C@@H](O)CN2C(=O)[C@@H](NC(=O)c2csc(N3CCN(c4cc(-c5ccccc5O)nnc4N)CC3)n2)C(C)(C)C)cc1 strictly below 2 %/min?
Satisfied

Below 2 %/min on Initial Degradation Rate? Entry Cc1ncsc1-c1ccc([C@H](C)NC(=O)[C@@H]2C[C@@H](O)CN2C(=O)[C@@H](NC(=O)c2ccnc(N3CCN(c4cnnc(-c5ccccc5O)c4)CC3)c2)C(C)(C)C)cc1
Satisfied

Dear colleague, could you confirm whether Initial Degradation Rate of Cc1ncsc1-c1ccc([C@H](C)NC(=O)[C@@H]2C[C@@H](O)CN2C(=O)[C@@H](NC(=O)CCc2ccnc(N3CCN(c4cc(-c5ccccc5O)nnc4N)CC3)c2)C(C)(C)C)cc1 falls below 2 %/min? Thanks.
Satisfied

====

The entries below are paired with their reported α (cooperativity, KLP/KLPT).
experimental.system: VBC / BRD4^BD2 ternary complex (Homo sapiens, UniProt O60885+P40337)
Construct: VHL (54-213), ElonginB (17-112) ElonginC (1-104); ternary complex formation with both bromodomains, BRD4^BD1 and BRD4^BD2, independently; His6 (N); made in house
measurement.description: SPR ternary complex binding, VBC surface with preformed PROTAC/BRD4 BD2 complex
Please state the value as a number alone, without comment.

// known answers, use as guide
>>> numeric_value("Cc1ncsc1-c1ccc(CNC(=O)[C@@H]2C[C@@H](O)CN2C(=O)[C@@H](NC(=O)COCc2cn(CCNC(=O)C[C@@H]3N=C(c4ccc(Cl)cc4)c4c(sc(C)c4C)-n4c(C)nnc43)nn2)C(C)(C)C)cc1")
3.7
>>> numeric_value("Cc1ncsc1-c1ccc(CNC(=O)[C@@H]2C[C@@H](O)CN2C(=O)[C@@H](NC(=O)COCCOCCOCc2cn(CCNC(=O)C[C@@H]3N=C(c4ccc(Cl)cc4)c4c(sc(C)c4C)-n4c(C)nnc43)nn2)C(C)(C)C)cc1")
1

Please tell me: α (cooperativity, KLP/KLPT) of Cc1ncsc1-c1ccc(CNC(=O)[C@@H]2C[C@@H](O)CN2C(=O)[C@@H](NC(=O)COCCOCCOCCOCc2cn(CCNC(=O)C[C@@H]3N=C(c4ccc(Cl)cc4)c4c(sc(C)c4C)-n4c(C)nnc43)nn2)C(C)(C)C)cc1 , system VBC / BRD4^BD2 ternary complex (Homo sapiens, UniProt O60885+P40337)?
0.8

Write down the reported α (cooperativity, KLP/KLPT) of Cc1ncsc1-c1ccc(CNC(=O)[C@@H]2C[C@@H](O)CN2C(=O)[C@@H](NC(=O)COCCOCc2cn(CCNC(=O)C[C@@H]3N=C(c4ccc(Cl)cc4)c4c(sc(C)c4C)-n4c(C)nnc43)nn2)C(C)(C)C)cc1 , test system: VBC / BRD4^BD2 ternary complex (Homo sapiens, UniProt O60885+P40337).
1.7

α (cooperativity, KLP/KLPT) of Cc1ncsc1-c1ccc(CNC(=O)[C@@H]2C[C@@H](O)CN2C(=O)[C@@H](NC(=O)COCCOCCOCCOCCOCc2cn(CCNC(=O)C[C@@H]3N=C(c4ccc(Cl)cc4)c4c(sc(C)c4C)-n4c(C)nnc43)nn2)C(C)(C)C)cc1 on VBC / BRD4^BD2 ternary complex (Homo sapiens, UniProt O60885+P40337)?
0.7

Reference source for all entries: paper PMC10344917
